Assay: self-splicing fitness, log relative to wild type (ln ratio); higher = more splicing; Tetrahymena group I intron in knt gene, E. coli kanamycin selection, DiMSum; sequences stand for … in CUCUCU…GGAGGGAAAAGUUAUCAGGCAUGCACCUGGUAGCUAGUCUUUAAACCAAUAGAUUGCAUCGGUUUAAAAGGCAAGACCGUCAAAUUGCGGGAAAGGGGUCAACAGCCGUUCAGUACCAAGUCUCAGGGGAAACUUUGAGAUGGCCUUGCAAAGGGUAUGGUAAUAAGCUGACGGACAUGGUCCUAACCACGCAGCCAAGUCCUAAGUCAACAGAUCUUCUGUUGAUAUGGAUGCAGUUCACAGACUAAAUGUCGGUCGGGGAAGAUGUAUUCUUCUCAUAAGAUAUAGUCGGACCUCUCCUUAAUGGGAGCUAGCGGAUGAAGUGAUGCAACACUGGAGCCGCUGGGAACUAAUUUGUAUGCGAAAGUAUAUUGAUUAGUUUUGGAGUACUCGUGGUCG;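 note: selection with 25 µg/mL kanamycin versus none on LB agar overnight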
Conditions: 30 °C
Assign Criterion met whenever self-splicing fitness (ln) does not fall below -2; assign Criterion not met whenever it does.

As a guide, the following entries are already answered.
> print(dat)
            biosequence                cat
1  GAGAAGCAAUAUUACGAUGC      Criterion met
2  AUCUAGCAAUAUUACGGCCC      Criterion met
3  CUAGAGCAAUAUUACGCGAU      Criterion met
4  CUCCAGCAAUAUUACGUCAG      Criterion met
5  GGCCAGCAAUAUUACGACAG  Criterion not met

Prompt: Does self-splicing fitness (ln) meet or surpass -2 for UGUGAGCAAUAUUACGAUCU ?
Completion: Criterion met

Prompt: Is self-splicing fitness (ln) at least -2? Consider UAUUAGCAAUAUUACGGACA
Completion: Criterion met

Prompt: Given UAGUAGCAAUAUUACGAUCA , state whether its self-splicing fitness (ln) is at least -2.
Completion: Criterion met

Prompt: Does GGGGAGCAAUAUUACGUGUU have a reported self-splicing fitness (ln) of at least -2?
Completion: Criterion not met

Prompt: Determine whether this sequence has self-splicing fitness (ln) no lower than -2: AGCCAGCAAUAUUACGAUAU
Completion: Criterion not met

Prompt: Decide: is the reported value of self-splicing fitness (ln) for ACAGAGCAAUAUUACGAAAC equal to or greater than -2?
Completion: Criterion not met

Prompt: Record AUGUAGCAAUAUUACGCGCU ; criterion: self-splicing fitness (ln) no lower than -2. Met?
Completion: Criterion met

Prompt: Textbook exercise: given the entry CUAUAGCAAUAUUACGGGAG , state whether its self-splicing fitness (ln) is greater than or equal to -2.
Completion: Criterion not met

Prompt: Textbook exercise: given the entry UACUAGCAAUAUUACGUGGC , state whether its self-splicing fitness (ln) is greater than or equal to -2.
Completion: Criterion not met

Prompt: Decide: self-splicing fitness (ln) of GGUCAGCAAUAUUACGGGGC >= -2?
Completion: Criterion not met

Prompt: Entry UACGAGCAAUAUUACGUCUA : is its self-splicing fitness (ln) no less than -2?
Completion: Criterion met

Prompt: Is self-splicing fitness (ln) for UUUUAGCAAUAUUACGUGCA at or above -2?
Completion: Criterion not met

Prompt: Could you tell me if the measured self-splicing fitness (ln) of UAGGAGCAAUAUUACGCUUU reaches -2 or more?
Completion: Criterion not met

Prompt: Reported self-splicing fitness (ln) at or above -2? ACGAAGCAAUAUUACGGGUG
Completion: Criterion met

Prompt: Does the reported self-splicing fitness (ln) for CGUUAGCAAUAUUACGAGAA fall at or above the -2 mark?
Completion: Criterion met

---

As shown below, each of these sequences has a reported self-splicing fitness (ln) value.
Test: self-splicing fitness, log relative to wild type (ln ratio); higher = more splicing; Tetrahymena group I intron in knt gene, E. coli kanamycin selection, DiMSum; sequences stand for … in CUCUCU…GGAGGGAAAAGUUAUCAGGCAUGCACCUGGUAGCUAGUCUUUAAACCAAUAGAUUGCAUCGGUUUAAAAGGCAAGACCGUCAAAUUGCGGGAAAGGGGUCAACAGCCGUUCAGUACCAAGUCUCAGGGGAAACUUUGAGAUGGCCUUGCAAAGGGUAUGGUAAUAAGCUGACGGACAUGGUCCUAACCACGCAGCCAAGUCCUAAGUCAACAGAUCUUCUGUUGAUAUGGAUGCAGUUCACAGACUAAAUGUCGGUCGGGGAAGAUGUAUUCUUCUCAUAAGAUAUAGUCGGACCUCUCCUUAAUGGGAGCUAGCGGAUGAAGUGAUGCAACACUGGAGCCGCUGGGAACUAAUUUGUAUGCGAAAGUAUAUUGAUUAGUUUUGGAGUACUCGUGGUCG
Conditions: 30 °C

> print(dat)
            biosequence  assay.result
1  CUAAAGCAAUAUUACGUGAA         -3.29

Recorded self-splicing fitness (ln) (sequence CACAAGCAAUAUUACGGCCA ): -1.1

Reported self-splicing fitness (ln) ( UAGGAGCAAUAUUACGGUUG ) = -3.11

// field: self-splicing fitness (ln); key: UCCUAGCAAUAUUACGCGGU ; value = -2.34

ACGCAGCAAUAUUACGGGAU yielded self-splicing fitness (ln) of -2.32

The reported self-splicing fitness (ln) of the sequence UGACAGCAAUAUUACGUCUA was -0.75

# self-splicing fitness (ln) (sequence: GCCGAGCAAUAUUACGGUAA ) is -0.184

Memo: GACGAGCAAUAUUACGAUUU , reported self-splicing fitness (ln): -0.943

Lab note: GUAGAGCAAUAUUACGGACG gave self-splicing fitness (ln) of -2.8

// recorded self-splicing fitness (ln) for CUGUAGCAAUAUUACGACUA : -1.74

The sequence UGGGAGCAAUAUUACGGGCG showed self-splicing fitness (ln) equal to -2.4

Just so you know, measured self-splicing fitness (ln) for AAGCAGCAAUAUUACGUGGC came out at -4.15

The sequence listed as CCGGAGCAAUAUUACGUGAG shows self-splicing fitness (ln) equal to -1.33

Please fill in: self-splicing fitness (ln) reported for GAGGAGCAAUAUUACGCUAA = -1.86

Summary for this sequence, AGGAAGCAAUAUUACGCCAG : self-splicing fitness (ln) is -2.89

Form: sequence = CAUCAGCAAUAUUACGCAAG ; self-splicing fitness (ln) = -0.655

Lab note: measured self-splicing fitness (ln) of CCAUAGCAAUAUUACGUUAC was -2.14

So for GUCAAGCAAUAUUACGUACC , the logged self-splicing fitness (ln) turned out to be -0.597

---

Overview of reported self-splicing fitness (ln) across a group of sequences:
Assay: self-splicing fitness, log relative to wild type (ln ratio); higher = more splicing; Tetrahymena group I intron in knt gene, E. coli kanamycin selection, DiMSum; sequences stand for … in CUCUCU…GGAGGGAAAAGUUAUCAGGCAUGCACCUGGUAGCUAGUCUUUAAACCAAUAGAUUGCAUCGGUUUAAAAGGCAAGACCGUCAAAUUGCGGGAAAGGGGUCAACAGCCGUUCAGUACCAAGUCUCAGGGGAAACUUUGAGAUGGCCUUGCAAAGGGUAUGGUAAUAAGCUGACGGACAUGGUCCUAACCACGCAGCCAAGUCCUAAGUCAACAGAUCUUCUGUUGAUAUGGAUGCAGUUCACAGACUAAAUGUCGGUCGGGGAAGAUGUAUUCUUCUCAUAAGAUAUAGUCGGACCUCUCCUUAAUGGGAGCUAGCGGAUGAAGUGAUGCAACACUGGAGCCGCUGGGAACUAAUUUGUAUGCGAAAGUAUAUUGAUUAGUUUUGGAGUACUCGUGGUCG
Conditions: 30 °C
Give the figure by itself; no unit, no explanation.

Reference set, count: 8
> print(dat)
            biosequence             measured.metric  assay.result
1  ACAUAGCAAUAUUACGGCGU  self-splicing fitness (ln)        -0.355
2  AGGAAGCAAUAUUACGUCUU  self-splicing fitness (ln)         -2.07
3  GGGCAGCAAUAUUACGAGGC  self-splicing fitness (ln)         -2.26
4  AUGGAGCAAUAUUACGGAAU  self-splicing fitness (ln)         -2.66
5  GACCAGCAAUAUUACGUGGU  self-splicing fitness (ln)         -2.67
6  UACGAGCAAUAUUACGUAAU  self-splicing fitness (ln)         -4.22
7  UGGAAGCAAUAUUACGUUAG  self-splicing fitness (ln)        -0.289
8  AGUGAGCAAUAUUACGCGUG  self-splicing fitness (ln)         -4.06

self-splicing fitness (ln) measured on UAUCAGCAAUAUUACGAGGU = -2.73

The sequence CACUAGCAAUAUUACGAUUU showed self-splicing fitness (ln) equal to -2.4

// self-splicing fitness (ln) lookup, sequence = UAAAAGCAAUAUUACGCGCG , result: -0.577

# self-splicing fitness (ln) of UGAUAGCAAUAUUACGCACA = 0.0791

self-splicing fitness (ln) reported for this sequence CGGGAGCAAUAUUACGUAAA : -2.94

Per the records, this sequence ( ACCCAGCAAUAUUACGCCUC ) has self-splicing fitness (ln) equal to -1.05

Recorded result, UAACAGCAAUAUUACGUGGA , self-splicing fitness (ln): -3.11

In plain terms, AUGAAGCAAUAUUACGGACC has a documented self-splicing fitness (ln) of -0.516

In plain terms, ACGGAGCAAUAUUACGGCCA has a documented self-splicing fitness (ln) of -1.69
